B1: PBXIP1 (parent)
chain: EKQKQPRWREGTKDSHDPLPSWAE

- Variants of: B1
- assay-notes: protein stability index of a GFP-peptide fusion (GPS, HEK-293T) (PSI 1-6); higher = more stable;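 note: lentivirally expressed fusions sorted by FACS into six bins by GFP to DsRed ratio, PSI derived from sequencing read proportions per bin multiplied by bin number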
- test-parameters: c terminus: a fixed tail appended
Quick rule for you: protein stability index at 2 or higher means YES, lower means NO.

EKQKQPRWREGTKDGHDPLPSWAE [S15G] ... NO
EKQKQPRWREGTKDSHDPLWSWAE [P20W] ... NO
EKQPQPRWREGTKDSHDPLPSWAE [K4P] ... NO
EKQKQPRCREGTKDSHDPLPSWAE [W8C] ... YES
EKQKQSRWREGTKDSHDPLPSWAE [P6S] ... YES
EKQMQPRWREGTKDSHDPLPSWAE [K4M] ... NO

# evaluate next
Prompt: Does protein stability index meet or surpass 2 for EKQKQPRWREGTKDSHDPLPSWYE [A23Y] ?
Response: YES
